Target: Alpha-2C adrenergic receptor (Homo sapiens)
Experiment: compounds altering alpha2C-coupled GIRK flux – cell-based, HEK293 alpha2C/GIRK1/2, thallium flux, primary screen (AID 624);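 further: slope of fluorescence ratio to pre-addition baseline per second over 15 to 24 s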
Conditions: thallium flux BTC fluorescence, at 10 µM, actives lie on both sides
Categorize each record by its slope using low group (below 0.005), middle group (0.005 to below 0.006), high group (0.006 or more)

Please review the entries below; each comes with its answer.
compound | label_value
CC(C)(C)c1cc(NS(=O)(=O)c2ccc3c(c2)OCCO3)on1 | high group
O=C(NCc1cccs1)c1cc2c(s1)CS(=O)(=O)C2 | high group

Determine which band this compound sits in: CC(C)Cc1n[nH]c(=O)[nH]1
middle group

Again, but for CC1=C(C(=O)Nc2ccccc2C)C(c2ccc(C)o2)N2C(=O)CSC2=N1 (stereo unspecified)
low group

Again, but for COc1ccc(-c2nnc(SCc3nnc(-c4ccc(Cl)cc4)o3)n2-c2ccccc2)cc1
middle group

Again, but for O=C(Nc1ccccc1)N(CCCN1CCOCC1)Cc1cc2cc3c(cc2[nH]c1=O)OCCO3
middle group

Again, but for Cc1ccc(Cl)cc1N1CCN(C(=O)c2cn(C)c(=O)c3c2c2ccccc2n3C)CC1
high group

Again, but for CC(=O)N1CCc2cc(S(=O)(=O)CCC(=O)Nc3cccc(F)c3)ccc21
low group

The values you see were collected from PubChem BioAssay.
